experimental target: isolated recombinant JAK2 kinase domain (Homo sapiens (Human))
method summary: JAK2 enzyme assay (Caliper LabChip, Ki)
run parameters: read-out: JAK2 Ki
test readout: Ki (nM)
Express the result in nM but write the number alone.

CN1CCC[C@@H]1Cn1cc(NC(=O)c2cnn3cccnc23)c(-c2cc3c(cc2OC(F)F)NC(=O)CS3)n1 : 0.19
O=C(Nc1cn(C2CCOC2=O)nc1-c1cc2c(cc1OC(F)F)NCCS2)c1cnn2cccnc12 (single isomer, unassigned) [Example 142] : 0.06
CC1CNc2cc(OC(F)F)c(-c3nn(CC(=O)N(C)C)cc3NC(=O)c3cnn4cccnc34)cc2S1 (single isomer, unassigned) [Example 105] : 0.13

Q: Request body: readout Ki, system isolated recombinant JAK2 kinase domain (Homo sapiens (Human)), query CC1CNc2cc(OC(F)F)c(-c3nn(CC(=O)N4CC=CCC4)cc3NC(=O)c3cnn4cccnc34)cc2S1 (single isomer, unassigned) [Example 103] . Return the value.
Ans: 0.14

Q: C[C@@H]1COc2cc(-c3n[nH]cc3NC(=O)c3cnn4cccnc34)c(OC(F)F)cc2N1 ?
Ans: 0.17

* * *

experimental target: isolated recombinant JAK2 kinase domain (Homo sapiens (Human), UniProt O60674)
Sequence (O60674 849-1124): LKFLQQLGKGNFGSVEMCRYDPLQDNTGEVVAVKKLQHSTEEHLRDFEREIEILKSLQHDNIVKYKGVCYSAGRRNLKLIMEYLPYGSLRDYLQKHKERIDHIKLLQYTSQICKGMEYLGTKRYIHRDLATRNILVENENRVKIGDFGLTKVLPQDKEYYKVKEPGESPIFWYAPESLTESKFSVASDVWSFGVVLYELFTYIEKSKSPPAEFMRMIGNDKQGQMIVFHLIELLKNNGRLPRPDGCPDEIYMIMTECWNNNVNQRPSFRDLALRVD
method summary: JAK2 enzyme assay (Caliper LabChip, Ki)
run parameters: read-out: JAK2 Ki
Entries annotated with measured Ki
Express the result in nM but write the number alone.

Q: Given CN1CCC[C@H]1Cn1cc(NC(=O)c2cnn3cccnc23)c(-c2cc3cn[nH]c3cc2OC(F)F)n1 , state its recorded Ki.
Ans: 0.53

Q: COc1cc2sc(C(N)=O)cc2cc1-c1n[nH]cc1NC(=O)c1cnn2cccnc12 ?
Ans: 6.01

Q: O=C(Nc1cn(CC(=O)N2CCC(O)CC2)nc1-c1cc2c(cc1OC(F)F)NCCO2)c1cnn2cccnc12 ?
Ans: 0.51

Q: CC1CSc2cc(-c3n[nH]cc3NC(=O)c3cnn4cccnc34)c(OC(F)F)cc2N1 (racemic) ?
Ans: 0.06

Q: CNCCn1cc(NC(=O)c2cnn3cccnc23)c(-c2cc3c(cc2OC(F)F)NC(=O)CS3)n1 ?
Ans: 0.13

Q: CN1CCCC1Cn1cc(NC(=O)c2cnn3cccnc23)c(-c2cc3cn[nH]c3cc2OC(F)F)n1 (racemic) ?
Ans: 0.26

Q: CC(C)(C)OC(=O)N1CCC(C(=O)Cn2ncc3cc(-c4n[nH]cc4NC(=O)c4cnn5cccnc45)c(OC(F)F)cc32)CC1 ?
Ans: 2.59

Q: COC(=O)Cn1cc(NC(=O)c2cnn3cccnc23)c(-c2cc3sccc3cc2OC(F)F)n1 ?
Ans: 0.29

Q: C[C@@H]1CNc2cc(OC(F)F)c(-c3n[nH]cc3NC(=O)c3cnn4cccnc34)cc2O1 ?
Ans: 0.23
